- System: ACHN renal
- protocol-summary: NCI tumour cell line growth inhibition, 48 h; in the data active means GI50 below about 0.43 µM; inactive means the rest
Outcomes: active, inactive

                                   compound  class_assignment
0              ClCC#CCSc1ncnc2c1ncn2CC#CCCl          inactive
1  Cn1ncc(-c2ccc3c(=O)[nH]nc(CN)c3c2)c1-c1c(F)cc2ccccc2c1C#N          inactive
2  Cc1c(C(=O)O[C@H]2[C@@H]3[C@H](C)CC[C@H]3[C@]3(C)O[C@@]2(C2CCCCC2)C[C@H]3OC(=O)CO)ccc2ccccc12            active
3  OC(COc1cccc2ccccc12)CN1CCN(c2ccccc2Cl)CC1 (stereo unspecified)          inactive
4  C=CCCC(=O)N1C=CC(=O)[C@H](O)[C@@H]1/C=C/c1ccccc1          inactive
5    N#Cc1cccc(OCc2ccccc2COc2cccc(C#N)c2)c1          inactive
